tgt: T1, human recombinant HER4 Extracellular Domain (HER4 ECD) (human, UniProt Q15303 26-651)
T1 sequence: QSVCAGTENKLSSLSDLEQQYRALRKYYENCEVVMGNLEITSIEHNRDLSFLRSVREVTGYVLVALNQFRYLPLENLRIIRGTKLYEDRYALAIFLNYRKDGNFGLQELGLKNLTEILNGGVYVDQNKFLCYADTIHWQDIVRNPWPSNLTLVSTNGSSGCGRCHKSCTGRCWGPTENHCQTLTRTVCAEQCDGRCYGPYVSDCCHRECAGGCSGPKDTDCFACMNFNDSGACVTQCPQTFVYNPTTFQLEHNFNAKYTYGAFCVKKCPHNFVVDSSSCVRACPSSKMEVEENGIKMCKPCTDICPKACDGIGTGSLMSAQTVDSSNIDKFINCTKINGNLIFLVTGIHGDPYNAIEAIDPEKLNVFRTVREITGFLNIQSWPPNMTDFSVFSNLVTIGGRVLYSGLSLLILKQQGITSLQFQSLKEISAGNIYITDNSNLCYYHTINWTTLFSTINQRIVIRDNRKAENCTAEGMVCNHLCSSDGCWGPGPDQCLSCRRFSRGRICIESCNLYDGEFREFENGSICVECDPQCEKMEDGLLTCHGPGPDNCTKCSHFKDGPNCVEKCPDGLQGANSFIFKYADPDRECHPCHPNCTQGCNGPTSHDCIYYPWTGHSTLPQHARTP
experimentSummary: ELISA, antigen coated, hybridoma supernatant

{"binder": "anti-HER3 antibody M-43-01 (antibody, V domains shown, mouse hybridoma clone) VH: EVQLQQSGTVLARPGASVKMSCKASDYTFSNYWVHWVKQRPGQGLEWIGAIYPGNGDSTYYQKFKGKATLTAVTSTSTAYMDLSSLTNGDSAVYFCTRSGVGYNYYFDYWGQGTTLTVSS VL: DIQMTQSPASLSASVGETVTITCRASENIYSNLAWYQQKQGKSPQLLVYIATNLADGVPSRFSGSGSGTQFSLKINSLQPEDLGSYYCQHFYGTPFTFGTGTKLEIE", "binding result": "no binding"}
{"binder": "anti-HER3 antibody M-17-02 (antibody, V domains shown, mouse hybridoma clone) VH: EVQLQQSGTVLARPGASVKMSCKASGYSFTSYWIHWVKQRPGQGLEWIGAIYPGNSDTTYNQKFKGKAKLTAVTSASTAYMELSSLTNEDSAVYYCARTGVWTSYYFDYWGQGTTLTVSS VL: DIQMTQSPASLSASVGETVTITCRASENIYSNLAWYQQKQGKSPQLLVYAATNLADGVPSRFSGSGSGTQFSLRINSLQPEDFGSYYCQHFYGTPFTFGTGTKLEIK", "binding result": "no binding"}
{"binder": "anti-HER3 antibody M-17-07 (antibody, V domains shown, mouse hybridoma clone) VH: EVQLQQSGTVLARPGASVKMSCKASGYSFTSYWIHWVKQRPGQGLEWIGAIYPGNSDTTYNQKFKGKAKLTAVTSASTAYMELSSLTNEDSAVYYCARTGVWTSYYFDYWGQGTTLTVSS VL: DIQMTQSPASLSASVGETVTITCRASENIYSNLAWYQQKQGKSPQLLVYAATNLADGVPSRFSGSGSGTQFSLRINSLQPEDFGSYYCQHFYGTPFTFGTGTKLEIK", "binding result": "no binding"}

Measured values drawn from patent US20180094062A1 for this set.
